# assay_notes: Competitive binding affinity to Fe3+ ion assessed as metal chelating activity by measuring binding constant by calcein probe based fluorescence displacement assay
Listed here are molecules together with their documented Kb.

# compound_structure, Kb
records = [
    ("Cc1c(O)c(=O)ccn1-c1ccc(N(C)CCN(C)C)cc1.Cl", "1.16 10^22/M"),
]

Looking up COc1cc(N2CCN(C)CC2)ccc1-n1ccc(=O)c(O)c1C , I found its Kb recorded as 1.88 10^22/M

Kb for Cc1c(O)c(=O)ccn1-c1ccc(N2CCN(C)CC2)c(F)c1 is 1.17 10^22/M

The recorded Kb for Cc1c(O)c(=O)ccn1-c1ccc(OCCCN2CCOCC2)cc1 is 1.23 10^22/M

In plain terms, Cc1c(O)c(=O)ccn1C has a documented Kb of 1.52 10^22/M

Looking up Cc1c(O)c(=O)ccn1-c1ccc(N(C)CCO)cc1 , I see its Kb listed as 1.15 10^22/M

Given item Cc1c(O)c(=O)ccn1-c1ccc(NCCN2CCN(C)CC2)cc1 , the value recorded as its Kb is 1.22 10^22/M
